- ASSAY NOTES: Plasma rivaroxaban concentration-time data and noncompartmental PK: single 20 mg rivaroxaban alone (Period I) vs with steady-state verapamil 360 mg (Period III), mild renal impairment or normal renal function
- TEST PARAMETERS: human, in vivo, CL/F/kg, Period III (rivaroxaban and verapamil); Group 2: Normal Renal Function; individual subjects
PARAMETER: CL/F (mL/min/kg)
Hi! Could you send only the number? It should be in mL/min/kg, unit omitted.

Query block: Return CL/F (reported value) for this compound: O=C(NC[C@H]1CN(c2ccc(N3CCOCC3=O)cc2)C(=O)O1)c1ccc(Cl)s1
Result block: 1.11

----------
- ASSAY NOTES: Plasma rivaroxaban concentration-time data and noncompartmental PK: single 20 mg rivaroxaban alone (Period I) vs with steady-state verapamil 360 mg (Period III), mild renal impairment or normal renal function
- TEST PARAMETERS: human, in vivo, 20 mg, CL/F/kg, Period I (rivaroxaban alone); Group 2: Normal Renal Function; outlier sample excluded; arithmetic mean
PARAMETER: CL/F

Query block: Fill in CL/F for record O=C(NC[C@H]1CN(c2ccc(N3CCOCC3=O)cc2)C(=O)O1)c1ccc(Cl)s1
Result block: 1.8 mL/min/kg

Every entry's value here was drawn from patent US20240252501A1.
